Survival for assorted molecules
# Tested on: senescent foreskin cells
# TEST_SUMMARY: survival of senescent foreskin cells treated with medium supernatant (secreted fluid) of compound-killed cells (Example 13, Tables 68, 69)
# Assay type: cell-based, human
# TEST_PARAMETERS: culture medium supernatant from dying senescent cells treated with compound at 30 μM, 90 μM or 270 μM; senescent foreskin cells
RECORDED_METRIC: Survival

MOLECULE	REPORTED_RESULT
O=C(O)CC([S-])C(=O)O.[Au+] (stereo not shown) [LX-202, Aurothiomalate, reference compound]	45.7
Cc1nnc(NC(=O)c2nc(S(=O)(=O)Cc3ccc(F)cc3)ncc2Cl)s1 [LX-916]	48.7
CC(=O)OC[C@H]1O[C@@H]([S-])[C@H](OC(C)=O)[C@@H](OC(C)=O)[C@@H]1OC(C)=O.CCP(CC)CC.[Au+] [LX-201, Auranofin, reference compound]	62.9
C[C@@H]1C(=O)C(C#N)=C[C@]2(c3ccccc3)c3c(c(-c4cncnc4)nn3C)CC[C@@H]12 [LX-2408]	55.2
